Test system: Lolium perenne (LOLPE)
Assay: Post-emergence herbicidal glasshouse test, Lolium perenne
Assay type: in vivo
Settings: 312 h, rate 250 g/ha, evaluated after 13 days, scale 100 = total damage to plant, 0 = no damage
readout: pest or weed control at 250 g/ha (%)
Please reply with the bare figure in % and do not write the unit itself.

# compound, pest or weed control at 250 g/ha, %
rows = [
    ("CCc1cc(-c2ccc(F)cc2)ccc1C1=C(O)C(C)(CC)OC(C)(CC)C1=O (centres unmarked)", 60),
    ("CCc1cc(-c2ccc(F)c(OC)c2)ccc1C1=C(O)C(C)(COC)OC(C)(C)C1=O (centres unmarked)", 90),
    ("CCc1cc(-c2ccc(Cl)s2)ccc1C1=C(O)C(C)(C)OC(C)(C)C1=O", 60),
    ("CCc1cc(-c2ccc(Cl)c(F)c2Cl)ccc1C1=C(O)C(C)(C)OC(C)(C)C1=O", 40),
    ("Cc1cc(-c2ccc(Cl)cc2F)cc(C)c1C1=C(O)[C@@]2(C)CC[C@H](O2)C1=O (racemic)", 100),
    ("CCc1cc(-c2ccc(Cl)cc2F)ccc1C1=C(O)C(C)(C)OC(C)(C)C1=O", 50),
]

# input GET /values?readout=pest or weed control at 250 g/ha&system=Lolium perenne (LOLPE)&item= CCc1cc(-c2cc(F)c(F)c(F)c2)ccc1C1=C(O)C(C)(C)S(=O)(=O)C(C)(C)C1=O
# output 80

# input Please give the result for CCc1cc(-c2cc(F)cc(Cl)c2)ccc1C1=C(O)C(C)(C)OC(C)(C)C1=O too.
# output 70

====

Tested on: Setaria faberi (SETFA)
Assay: Pre-emergence herbicidal glasshouse test, Setaria faberi
Assay type: in vivo
Conditions: Setaria faberi, 312 h, rate 250 g/ha, evaluated after 13 days, scale 100 = total damage to plant, 0 = no damage
Would you please tag the item yes when its pest or weed control at 250 g/ha is 80% or above, and no when it is below?

Consider the worked cases shown below.
# compound, class
rows = [
    ("CCc1cc(-c2ccc(Cl)c(C)c2)ccc1C1=C(O)[C@@]2(C)CC[C@H](O2)C1=O [Compound A-19]", "no"),
    ("CCc1cc(-c2cc(Cl)cc(Cl)c2)ccc1C1=C(O)[C@@]2(C)CC[C@H](O2)C1=O [Compound A-15]", "no"),
    ("CCc1cc(-c2ccc(Cl)c(F)c2)ccc1C1=C(O)[C@@]2(C)CC[C@H](O2)C1=O (racemic) [Compound A-24]", "yes"),
    ("CCc1cc(-c2ccc(Cl)s2)ccc1C1=C(O)[C@@]2(C)CC[C@H](O2)C1=O [Compound A-23]", "no"),
    ("CCOC[C@]12CC[C@H](O1)C(=O)C(c1ccc(-c3ccc(Cl)cc3)cc1CC)=C2O [Compound A-33]", "no"),
    ("CCc1cc(-c2ccc(Cl)cc2C)ccc1C1=C(O)[C@@]2(C)CC[C@H](O2)C1=O [Compound A-16]", "no"),
    ("CCc1cc(-c2c(F)cc(Cl)cc2F)ccc1C1=C(O)[C@@]2(C)CC[C@H](O2)C1=O (racemic) [Compound A-27]", "no"),
    ("CCc1cc(-c2ccc(Cl)c(Cl)c2F)ccc1C1=C(O)[C@@]2(C)CC[C@H](O2)C1=O (racemic) [Compound A-31]", "no"),
]

# input Please indicate if the recorded pest or weed control at 250 g/ha for Cc1cc(-c2ccc(Cl)cc2)ccc1C1=C(O)[C@@]2(C)CC[C@H](O2)C1=O (racemic) [Compound A-10] meets or exceeds 80%.
# output no

# input Please give the result for CCc1cc(-c2ccc(Cl)c(Cl)c2)ccc1C1=C(O)[C@@]2(C)CC[C@H](O2)C1=O [Compound A-17] too.
# output yes

# input Please give the result for CCc1cc(-c2ccc(F)cc2)ccc1C1=C(O)[C@@]2(C)CC[C@H](O2)C1=O [Compound A-18] too.
# output yes

# input Please give the result for CCc1cc(-c2ccc(C)cc2)ccc1C1=C(O)[C@@]2(C)CC[C@H](O2)C1=O (racemic) [Compound A-6] too.
# output no

# input Please give the result for CCc1cc(-c2ccc(Cl)cc2)cc(CC)c1C1=C(O)[C@@]2(C)CC[C@H](O2)C1=O (racemic) [Compound A-11] too.
# output yes
